Value source: paper PMC11054573

Recorded pIC50 values for a group of compounds are listed next.
- system: DDR1 (Homo sapiens, UniProt Q08345)
- Sequence (Q08345 19-913): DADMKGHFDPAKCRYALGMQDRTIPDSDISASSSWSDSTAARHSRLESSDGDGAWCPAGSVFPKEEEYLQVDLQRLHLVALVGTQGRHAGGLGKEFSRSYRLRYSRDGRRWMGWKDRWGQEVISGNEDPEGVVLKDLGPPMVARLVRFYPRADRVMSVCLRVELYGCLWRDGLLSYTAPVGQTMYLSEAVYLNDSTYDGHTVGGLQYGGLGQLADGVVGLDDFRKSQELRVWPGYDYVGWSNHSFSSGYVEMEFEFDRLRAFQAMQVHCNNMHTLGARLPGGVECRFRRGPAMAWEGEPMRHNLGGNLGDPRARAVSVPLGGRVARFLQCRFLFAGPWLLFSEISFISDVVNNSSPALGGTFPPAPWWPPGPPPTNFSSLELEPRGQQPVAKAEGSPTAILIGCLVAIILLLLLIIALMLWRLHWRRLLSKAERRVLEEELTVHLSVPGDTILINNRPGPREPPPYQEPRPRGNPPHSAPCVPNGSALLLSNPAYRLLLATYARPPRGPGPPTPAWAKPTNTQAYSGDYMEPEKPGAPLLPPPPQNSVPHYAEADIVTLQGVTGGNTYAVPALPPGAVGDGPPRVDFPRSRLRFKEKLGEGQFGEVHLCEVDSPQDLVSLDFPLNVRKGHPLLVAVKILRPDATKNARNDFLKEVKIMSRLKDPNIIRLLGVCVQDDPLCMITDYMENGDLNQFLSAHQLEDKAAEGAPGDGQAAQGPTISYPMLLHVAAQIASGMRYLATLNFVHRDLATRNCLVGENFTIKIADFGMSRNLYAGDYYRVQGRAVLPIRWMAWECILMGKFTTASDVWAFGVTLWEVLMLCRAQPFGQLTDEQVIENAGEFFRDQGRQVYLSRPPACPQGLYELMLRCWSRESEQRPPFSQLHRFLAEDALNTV
- experiment-notes: RBC radiometric HotSpot kinase assay, DDR1
pIC50: −log10 of the molar value.
observed-property: pIC50

{"columns": ["compound", "system", "reported-result"],
 "data": [
  ["O=C(Nc1ccc(Cl)c(C(F)(F)F)c1)Nc1ccc2oc(=O)ccc2c1 [Compound 3g]", "DDR1 (Homo sapiens, UniProt Q08345)", 5.54],
  ["O=C(Nc1ccc(F)c(Cl)c1)Nc1ccc2oc(=O)ccc2c1 [Compound 3h]", "DDR1 (Homo sapiens, UniProt Q08345)", 5.78],
  ["O=C(Nc1cc(C(F)(F)F)cc(C(F)(F)F)c1)Nc1ccc2oc(=O)ccc2c1 [Compound 3i]", "DDR1 (Homo sapiens, UniProt Q08345)", 5.82],
  ["O=C(Nc1cc(Cl)cc(Cl)c1)Nc1ccc2oc(=O)ccc2c1 [Compound 3j]", "DDR1 (Homo sapiens, UniProt Q08345)", 5.60],
  ["O=C(Nc1cccc(C(F)(F)F)c1)Nc1ccc2oc(=O)ccc2c1 [Compound 3a]", "DDR1 (Homo sapiens, UniProt Q08345)", 6.49],
  ["O=C(Nc1cccc(OC(F)(F)F)c1)Nc1ccc2oc(=O)ccc2c1 [Compound 3q]", "DDR1 (Homo sapiens, UniProt Q08345)", 6.72]
]}
